assay: Toxicity liver stage against HepG2, at 10uM; format: cell-based; parameters: test concentration 10 uM, cell line HepG2-A16-CD81EGFP; settings: human, HepG2-A16-CD81EGFP cells; read-out: INHIBITION
Reported cytotoxicity at 10 µM values for a set of molecules
// note: answer is a bare numeric in %

Examples from the recorded data:
COc1ccc(-c2cn(CCSc3ncn[nH]3)nn2)cn1: 3.36
Cc1cccc(CN2C[C@@H]3CN(C(=O)C4CC=CC4)C[C@@H]3C2=O)n1: 2
CCOC1Sc2nnc(C)n2N=C1c1ccc(F)cc1 (stereo not given): 4.48
O=C(NCC(O)c1cccc(F)c1)C1CCN(C(=O)C2CCC2)CC1 (stereo not given): 4.43

Query Cc1cnn(CCNCC(O)COc2ccc(C#N)cc2)c1 (stereo not given) yields cytotoxicity at 10 µM of -11.9

Value source: ChEMBL document CHEMBL4513216
